experiment: MTT relative viability, PhTERT-SEAP (H1299) cells; details: human
Decision: viability at 48 h, 1.9 µM beneath 90% gives 1; viability at 48 h, 1.9 µM meeting or exceeding 90% gives 0.

Some entries whose results are on file:
compound	className
O=C(Oc1cccc2c1C(=O)c1cccc(OC(=O)c3ccccc3Cl)c1C2=O)c1ccccc1Cl	1
O=C(Cc1ccc(F)cc1)Nc1ccc(NC(=O)Cc2ccc(F)cc2)c2c1C(=O)c1ccccc1C2=O	0
O=C(Oc1cccc2c1C(=O)c1cccc(OC(=O)c3cccc(Cl)c3)c1C2=O)c1cccc(Cl)c1	0

Read the next record carefully.
# strict comparison: is reported viability at 48 h, 1.9 µM < 90%? input = O=C1c2c(O)ccc(O)c2C(=O)c2c(NCCNCCO)ccc(NCCNCCO)c21 [Mitoxantrone, reference compound]
0
